Known TD15: the transmission after 15 minutes' exposure to UV of a selection of compounds
Experiment: Photochromic properties of lens samples (2 mm, compound in the mass of cross-linked matrix I or II) exposed to UV radiation from a xenon lamp
Type: physicochemical
Settings: lens sample, Matrix I (homopolymer of DIACRYL 121)
observed-property: TD15: the transmission after 15 minutes' exposure to UV (%)

{"compound": "COc1ccc(C2(c3ccc(OC)cc3OC)C=Cc3c(c(C(=O)N4CCc5ccccc54)cc4ccccc34)O2)c(OC)c1", "reading": 7.4}
{"compound": "COc1ccc(C2(c3ccc(OC)cc3OC)C=Cc3c(c(C(=O)N4CCOCC4)cc4ccccc34)O2)c(OC)c1", "reading": 4.3}
{"compound": "COc1ccc(C2(c3ccc(N4CCCCC4)cc3)C=Cc3c(c(C(=O)N4CCCCC4)cc4ccccc34)O2)c(OC)c1 (stereo not shown)", "reading": 19.7}
{"compound": "CN(C)c1ccc(C2(c3ccc(N(C)C)c4ccccc34)C=Cc3c(c(C(=O)N4CCOCC4)cc4ccccc34)O2)cc1 (stereo not shown)", "reading": 30.8}
{"compound": "COc1ccc(C2(c3ccc(OC)cc3OC)C=Cc3c(c(C(=O)N4CCOCC4)cc4ccccc34)O2)cc1 (stereo not shown)", "reading": 1.0}
{"compound": "COc1ccc(C2(c3ccc(OC)c(OC)c3)C=Cc3c(c(C(=O)N4CCOCC4)cc4ccccc34)O2)c(OC)c1 (stereo not shown)", "reading": 15.8}
{"compound": "Cc1ccc(NC(=O)c2cc3ccccc3c3c2OC(c2ccccc2)(c2ccccc2)C=C3)cc1", "reading": 42.6}

Reference for the values: patent EP1038870A1
